subject.of.test: GABA-A receptor; alpha-1/beta-2/gamma-2 (Homo sapiens, UniProt P14867+P18507+P47870)
Sequence (P14867 whole entry): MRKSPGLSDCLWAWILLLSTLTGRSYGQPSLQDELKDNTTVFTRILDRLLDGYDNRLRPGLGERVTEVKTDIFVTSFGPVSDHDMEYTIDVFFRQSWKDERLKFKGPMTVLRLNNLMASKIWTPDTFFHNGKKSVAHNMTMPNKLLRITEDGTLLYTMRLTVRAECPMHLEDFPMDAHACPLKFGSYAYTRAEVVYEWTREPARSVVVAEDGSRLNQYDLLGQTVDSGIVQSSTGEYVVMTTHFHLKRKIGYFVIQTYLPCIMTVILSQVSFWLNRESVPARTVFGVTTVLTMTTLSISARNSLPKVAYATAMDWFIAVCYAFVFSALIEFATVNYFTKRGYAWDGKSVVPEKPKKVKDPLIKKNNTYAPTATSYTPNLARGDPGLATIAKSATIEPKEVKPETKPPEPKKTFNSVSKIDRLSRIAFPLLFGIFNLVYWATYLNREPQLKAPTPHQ
Sequence (P47870 whole entry): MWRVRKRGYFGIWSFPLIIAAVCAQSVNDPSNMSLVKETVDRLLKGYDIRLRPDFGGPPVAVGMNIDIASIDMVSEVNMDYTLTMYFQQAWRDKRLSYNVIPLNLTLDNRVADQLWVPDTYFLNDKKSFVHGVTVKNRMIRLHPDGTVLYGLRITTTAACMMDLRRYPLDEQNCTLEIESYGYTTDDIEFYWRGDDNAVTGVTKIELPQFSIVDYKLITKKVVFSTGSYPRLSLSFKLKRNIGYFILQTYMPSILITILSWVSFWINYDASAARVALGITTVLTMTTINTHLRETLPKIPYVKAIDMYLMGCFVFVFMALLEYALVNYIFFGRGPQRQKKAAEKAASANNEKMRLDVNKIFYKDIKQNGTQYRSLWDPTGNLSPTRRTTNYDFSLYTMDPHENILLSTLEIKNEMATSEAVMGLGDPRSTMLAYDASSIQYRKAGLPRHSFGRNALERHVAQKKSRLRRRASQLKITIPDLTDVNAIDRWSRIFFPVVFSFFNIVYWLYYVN
Sequence (P18507 whole entry): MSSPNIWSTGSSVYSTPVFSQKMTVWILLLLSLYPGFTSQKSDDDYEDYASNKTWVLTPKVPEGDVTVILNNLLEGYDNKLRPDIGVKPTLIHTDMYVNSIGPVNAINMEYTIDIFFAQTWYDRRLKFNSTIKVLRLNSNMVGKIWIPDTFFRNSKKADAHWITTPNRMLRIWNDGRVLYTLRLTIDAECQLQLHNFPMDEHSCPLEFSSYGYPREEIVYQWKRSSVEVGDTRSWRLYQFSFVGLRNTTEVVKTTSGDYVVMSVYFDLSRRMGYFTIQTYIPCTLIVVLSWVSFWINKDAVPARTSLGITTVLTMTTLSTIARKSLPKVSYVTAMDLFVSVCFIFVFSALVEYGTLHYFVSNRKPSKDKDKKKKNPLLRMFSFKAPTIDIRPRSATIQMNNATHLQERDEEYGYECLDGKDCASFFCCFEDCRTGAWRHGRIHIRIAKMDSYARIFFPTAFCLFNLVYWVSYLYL
experimental.details: Inhibition of currents elicited by GABA at EC5 (6-12 uM)
pIC50: −log10 of the molar value.
assay.readout: pIC50

structure_notation=C[C@H](c1ccccc1)n1cncc1C(=O)OCCC1(C)N=N1 subject_of_test="GABA-A receptor; alpha-1/beta-2/gamma-2 (Homo sapiens, UniProt P14867+P18507+P47870)" assay_readout=pIC50 readout_value=3.98
structure_notation=C[C@@H](c1ccccc1)n1cncc1C(=O)OCCC1(C)N=N1 subject_of_test="GABA-A receptor; alpha-1/beta-2/gamma-2 (Homo sapiens, UniProt P14867+P18507+P47870)" assay_readout=pIC50 readout_value=4.18
